Below, log10 Ki values reported for 5-hydroxytryptamine receptor 1B (Homo sapiens) across several publications.
Hello, just confirming the data are log10 of Ki with units of nM.

Please indicate log10 Ki recorded for Cc1ccc2c(OCCN3CCC(Cc4cccc(C5CCNCC5)c4)CC3)cccc2n1
0.80

Please indicate log10 Ki recorded for FC(F)(F)c1nc2c(N3CCN(CCOc4cccc5nc(C(F)(F)F)[nH]c45)CC3)cccc2[nH]1
1.78

Please indicate log10 Ki recorded for Cc1ccc2c(OCCN3CCN(Cc4ccc5[nH]ccc5c4)CC3)cccc2n1
2.20

Please indicate log10 Ki recorded for Cc1ccc2c(OCCN3CCC(Cc4cccc(N5C[C@@H](C)NC[C@@H]5C)c4)CC3)cccc2n1
1.50

// each listed molecule needs a value for log10 Ki
1. COc1cc2c(cc1N1C[C@@H](C)N(C)[C@@H](C)C1)N(C(=O)Cc1cccc(C(F)(F)F)c1F)CC2
2. Cc1ccc2c(OCCN3CCC(Cc4cccc(-c5cccnc5)c4)CC3)cccc2n1
3. COc1cc2c(cc1N1C[C@@H](C)N[C@@H](C)C1)N(C(=O)c1ccc(-c3cccc(C)n3)c3ccccc13)CC2
4. O=C(Nc1ccc2[nH]cc(C3CCN(C/C=C/CN4CCC(c5c[nH]c6ccc(NC(=O)c7ccc(F)cc7)cc56)CC4)CC3)c2c1)c1ccc(F)cc1

[0.20, 1.10, 1.70, 2.01]

// each listed molecule needs a value for log10 Ki
1. COc1cc2c(cc1N1C[C@@H](C)N[C@@H](C)C1)N(C(=O)c1ccc(-c3ccc(-c4ncccn4)cc3C)cc1)CC2
2. COc1cc2c(cc1N1C[C@@H](C)N[C@@H](C)C1)N(C(=O)c1ccc(-c3ccc(C(C)=O)cc3C)cc1)CC2
3. N#Cc1ccc2c(c1)CCN(CC[C@H]1CC[C@H](NC(=O)/C=C/c3ccccc3)CC1)C2
4. COc1ccc(NC(=O)N2CCN(c3ccccc3)CC2)cc1N1CCN(C)CC1
5. CN1CCC(c2c[nH]c3ccc(NC(=O)c4ccsc4)nc23)CC1
6. Cc1nc(-c2ccc(-c3ccc(C(=O)Nc4cc5c(c(OCCN(C)C)c4)OCC5)cc3)c(C)c2)no1

1: 0.70; 2: 0.50; 3: 3.00; 4: 1.26; 5: 3.00; 6: 0.20

// each listed molecule needs a value for log10 Ki
1. O=C(NC12CC3CC(CC(C3)C1)C2)N1CC=C(c2ccc3[nH]cc(CCN4CCCC4)c3c2)CC1
2. CCCN(CCCCN1C(=O)CC(C)(C)CC1=O)[C@H]1CCc2ccc3[nH]cc(C=O)c3c2C1
3. Cc1ncc2c(N3CCN(CCc4ccc5c(c4)NC(=O)CO5)CC3)cccc2n1
4. COc1cc2c(cc1N1C[C@@H](C)N(C)[C@@H](C)C1)N(C(=O)Nc1cccc(Cl)c1Cl)CC2

[1.81, 3.21, -0.20, 0.90]

Please indicate log10 Ki recorded for COc1ccccc1-c1cc(C2CCNC2)ccc1Cl (configuration not stated)
2.61
